biological target: human recombinant COX-2 (Homo sapiens, UniProt P35354); construct: purchased Cayman Chemical Co. 60122; assay: COX-2 oxygenation of 2-AG, oxygen electrode; format: biochemical; settings: 300 µM NSAID; substrate 2-AG 10 µM; initial activity 10-30 s; n = 3
Sequence (P35354 18-604): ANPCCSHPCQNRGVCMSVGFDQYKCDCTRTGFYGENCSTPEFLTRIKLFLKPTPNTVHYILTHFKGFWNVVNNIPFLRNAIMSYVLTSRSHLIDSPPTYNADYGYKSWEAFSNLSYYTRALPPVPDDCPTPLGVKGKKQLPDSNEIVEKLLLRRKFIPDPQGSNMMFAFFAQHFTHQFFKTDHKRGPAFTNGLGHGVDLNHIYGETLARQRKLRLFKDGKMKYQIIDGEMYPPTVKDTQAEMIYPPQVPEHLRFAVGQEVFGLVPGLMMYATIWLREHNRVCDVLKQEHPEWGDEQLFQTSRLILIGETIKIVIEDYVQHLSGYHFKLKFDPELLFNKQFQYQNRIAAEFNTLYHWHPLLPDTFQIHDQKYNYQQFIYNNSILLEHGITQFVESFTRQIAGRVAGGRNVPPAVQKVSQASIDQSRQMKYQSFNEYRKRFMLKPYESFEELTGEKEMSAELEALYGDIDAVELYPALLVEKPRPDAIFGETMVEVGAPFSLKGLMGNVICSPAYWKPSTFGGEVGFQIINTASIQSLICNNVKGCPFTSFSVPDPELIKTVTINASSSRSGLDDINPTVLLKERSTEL
quantity: COX-2 activity (% of control)

Consider the compound CC(C(=O)O)c1ccc(C(O)C(C)C)cc1 (centres unmarked) and give its recorded COX-2 activity (% of control). 108±15 % of control

For the compound CC(C(=O)O)c1ccc(-c2ccc(O)cc2)c(F)c1 (centres unmarked) , give its reported COX-2 activity (% of control). −6±9 % of control

Please report COX-2 activity (% of control) for the following compound: CC(Cc1ccc(C(C)C(=O)O)cc1)C(=O)O (centres unmarked) 132±17 % of control

Respond only with COX-2 activity (% of control) recorded for CC(CO)Cc1ccc(C(C)C(=O)O)cc1 (centres unmarked) 91±2 % of control

In one line, give reported COX-2 activity (% of control) of the entry CC(C(=O)O)c1ccc(CC(C)(C)O)cc1 (centres unmarked) . 115±21 % of control

---

Molecular target: Ovine COX-1 (Ovis aries, UniProt P05979)
Construct: purchased Cayman Chemical Co. 60100
Sequence (P05979 25-600): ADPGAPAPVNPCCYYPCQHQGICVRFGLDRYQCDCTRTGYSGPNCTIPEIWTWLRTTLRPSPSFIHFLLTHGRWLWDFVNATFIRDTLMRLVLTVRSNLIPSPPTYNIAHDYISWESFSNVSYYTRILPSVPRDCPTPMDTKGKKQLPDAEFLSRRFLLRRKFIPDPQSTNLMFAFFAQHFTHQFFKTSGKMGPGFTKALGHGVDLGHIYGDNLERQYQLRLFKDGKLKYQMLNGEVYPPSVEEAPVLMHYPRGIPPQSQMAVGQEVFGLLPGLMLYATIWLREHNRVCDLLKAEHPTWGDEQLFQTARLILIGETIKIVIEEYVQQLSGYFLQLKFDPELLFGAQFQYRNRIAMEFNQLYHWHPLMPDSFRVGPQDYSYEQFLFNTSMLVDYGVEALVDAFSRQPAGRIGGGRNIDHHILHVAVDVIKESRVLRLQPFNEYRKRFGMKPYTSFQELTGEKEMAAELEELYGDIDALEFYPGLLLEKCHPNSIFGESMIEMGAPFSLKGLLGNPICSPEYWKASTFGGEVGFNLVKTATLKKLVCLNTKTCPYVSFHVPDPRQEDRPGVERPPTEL
Experiment: COX-1 oxygenation of arachidonic acid, oxygen electrode
Assay type: biochemical
Details: 300 µM compound; read-out: inhibition of COX-1-catalysed oxygenation of arachidonic acid
Label NO if inhibition at 300 µM falls below 9%; label YES in every other case.

Does the reported inhibition at 300 µM for CC(Cc1ccc(C(C)C(=O)O)cc1)C(=O)O (centres unmarked) [Carboxyibuprofen] fall at or above the 9% mark? NO

Could you tell me if the measured inhibition at 300 µM of CC(CO)Cc1ccc(C(C)C(=O)O)cc1 (centres unmarked) [3′-OH-Ibuprofen] reaches 9% or more? NO

Hi team, for CC(C(=O)O)c1ccc(-c2ccc(O)cc2)c(F)c1 (centres unmarked) [4′-OH-Flurbiprofen] , is the recorded inhibition at 300 µM at or above 9%? YES

Please tell me: is the molecule CC(C(=O)O)c1ccc(C(O)C(C)C)cc1 (centres unmarked) [1′-OH-Ibuprofen] at or over 9% in terms of inhibition at 300 µM? YES

---

target: rat brain FAAH (Rattus norvegicus, UniProt P97612); construct: FAAH activity was quantified by measuring hydrolysis of tritium labelled AEA in rat brain homogenates; from tissue; host or cells: rat brain (minus cerebella), Wistar or Sprague-Dawley, washed membrane pellets; assay: FAAH hydrolysis of [3H]AEA in rat brain homogenates; type: biochemical; conditions: pH 6.0; 0.5 µM AEA; read-out: IC50, inhibition of [3H]AEA hydrolysis (converted)
Sequence (P97612 whole entry): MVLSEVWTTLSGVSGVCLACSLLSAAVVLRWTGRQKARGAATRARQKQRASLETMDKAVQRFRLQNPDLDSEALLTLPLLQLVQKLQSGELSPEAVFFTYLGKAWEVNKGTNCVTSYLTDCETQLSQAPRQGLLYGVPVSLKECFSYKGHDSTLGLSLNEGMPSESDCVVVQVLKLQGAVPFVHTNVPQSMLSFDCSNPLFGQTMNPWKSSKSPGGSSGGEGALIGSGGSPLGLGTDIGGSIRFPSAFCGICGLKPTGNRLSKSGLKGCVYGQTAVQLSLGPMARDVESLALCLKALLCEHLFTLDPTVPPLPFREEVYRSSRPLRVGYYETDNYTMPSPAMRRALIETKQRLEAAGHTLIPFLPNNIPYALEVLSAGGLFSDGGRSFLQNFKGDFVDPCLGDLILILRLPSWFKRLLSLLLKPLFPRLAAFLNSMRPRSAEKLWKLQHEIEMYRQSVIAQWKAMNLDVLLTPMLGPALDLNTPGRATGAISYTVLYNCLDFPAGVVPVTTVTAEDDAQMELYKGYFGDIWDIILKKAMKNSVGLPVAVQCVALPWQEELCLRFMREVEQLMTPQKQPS
I'd be grateful if you could share measured IC50 for these entries.
// note: answer is a bare numeric in µM

Tell me IC50 reported for CC(C(=O)O)c1ccc(-c2ccc(O)cc2)c(F)c1 (stereo not drawn) 84

Return value of IC50 for input CC(CO)Cc1ccc(C(C)C(=O)O)cc1 (stereo not drawn) , no commentary. 200

Tell us which IC50 value is on record for CC(C(=O)O)c1ccc(CC(C)(C)O)cc1 (stereo not drawn) 380

Tell me its IC50 given CC(C(=O)O)c1ccc(-c2ccccc2)c(F)c1 (racemic) [Flurbiprofen, reference compound] as the entry. 28

Give IC50 for the following compound: CC(Cc1ccc(C(C)C(=O)O)cc1)C(=O)O (stereo not drawn) 410

For the compound CC(C(=O)O)c1ccc(C(O)C(C)C)cc1 (stereo not drawn) , report IC50. 340

---

biological target: human recombinant COX-2 (Homo sapiens); construct: purchased Cayman Chemical Co. 60122; experiment: COX-2 oxygenation of arachidonic acid, oxygen electrode; format: biochemical; conditions: 300 µM NSAID; substrate AA 10 µM; initial activity 10-30 s; n = 3
quantity: COX-2 activity (% of control)

Answer with the recorded COX-2 activity (% of control) for the compound listed here: CC(CO)Cc1ccc(C(C)C(=O)O)cc1 (centres unmarked) 84±10 % of control

Given CC(Cc1ccc(C(C)C(=O)O)cc1)C(=O)O (centres unmarked) , respond with its COX-2 activity (% of control). 139±41 % of control

Note COX-2 activity (% of control) for the compound shown: CC(C(=O)O)c1ccc(C(O)C(C)C)cc1 (centres unmarked) 59±13 % of control

Give COX-2 activity (% of control) for CC(C(=O)O)c1ccc(CC(C)(C)O)cc1 (centres unmarked) 83±12 % of control

Answer with reported COX-2 activity (% of control) of CC(C(=O)O)c1ccc(-c2ccc(O)cc2)c(F)c1 (centres unmarked) 106±9 % of control

---

Task for the reader: assign each of the following compounds its reported IC50.
target: rat brain FAAH (Rattus norvegicus); construct: FAAH activity was quantified by measuring hydrolysis of tritium labelled AEA in rat brain homogenates; from tissue; host or cells: rat brain (minus cerebella), Wistar or Sprague-Dawley, washed membrane pellets; assay: FAAH hydrolysis of [3H]AEA in rat brain homogenates; assay type: biochemical; conditions: pH 6.0; 0.5 µM AEA; read-out: pI50, inhibition of [3H]AEA hydrolysis (converted)

Supply measured IC50 of CC(C(=O)O)c1ccc(-c2ccc(O)cc2)c(F)c1 (stereo not drawn) in your reply. 85.1 µM

Give IC50 for the following compound: CC(C(=O)O)c1ccc(C(O)C(C)C)cc1 (stereo not drawn) 339 µM

Please list IC50 recorded for the compound CC(C(=O)O)c1ccc(CC(C)(C)O)cc1 (stereo not drawn) 380 µM

Write down IC50 measured for item CC(Cc1ccc(C(C)C(=O)O)cc1)C(=O)O (stereo not drawn) 417 µM

Dear colleague, please send me the reported IC50 for CC(CO)Cc1ccc(C(C)C(=O)O)cc1 (stereo not drawn) when you can. 200 µM

Please indicate IC50 recorded for CC(C(=O)O)c1ccc(-c2ccccc2)c(F)c1 (racemic) [Flurbiprofen, reference compound] 27.5 µM
